# measured_on: His-Tagged hOGA (human O-GlcNAcase) (Homo sapiens (Human), UniProt O60502)
# Sequence (O60502 whole entry): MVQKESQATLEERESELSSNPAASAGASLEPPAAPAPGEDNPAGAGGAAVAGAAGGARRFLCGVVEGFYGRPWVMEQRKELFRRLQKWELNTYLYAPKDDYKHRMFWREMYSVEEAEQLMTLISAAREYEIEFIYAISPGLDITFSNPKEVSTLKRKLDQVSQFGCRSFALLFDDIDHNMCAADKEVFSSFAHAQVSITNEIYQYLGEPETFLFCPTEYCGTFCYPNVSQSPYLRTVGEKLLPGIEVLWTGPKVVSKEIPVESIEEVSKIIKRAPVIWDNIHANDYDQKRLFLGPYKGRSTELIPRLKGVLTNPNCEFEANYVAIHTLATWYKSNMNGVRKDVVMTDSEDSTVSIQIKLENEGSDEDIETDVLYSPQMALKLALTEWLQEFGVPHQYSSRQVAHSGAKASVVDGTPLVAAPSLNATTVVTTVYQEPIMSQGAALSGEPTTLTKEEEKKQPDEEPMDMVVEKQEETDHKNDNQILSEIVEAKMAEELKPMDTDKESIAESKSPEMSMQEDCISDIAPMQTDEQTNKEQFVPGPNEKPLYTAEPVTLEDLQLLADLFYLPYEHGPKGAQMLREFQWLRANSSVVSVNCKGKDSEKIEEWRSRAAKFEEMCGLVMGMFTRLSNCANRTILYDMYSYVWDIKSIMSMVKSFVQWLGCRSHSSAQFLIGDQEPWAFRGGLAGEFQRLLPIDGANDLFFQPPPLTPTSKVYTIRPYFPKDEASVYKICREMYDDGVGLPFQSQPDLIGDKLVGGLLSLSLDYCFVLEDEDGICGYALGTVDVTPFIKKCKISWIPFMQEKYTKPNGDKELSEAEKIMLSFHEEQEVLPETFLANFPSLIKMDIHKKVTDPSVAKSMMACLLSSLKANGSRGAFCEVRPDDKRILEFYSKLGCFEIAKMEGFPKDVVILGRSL
# assay_comment: Human O-GlcNAcase enzyme inhibition assay (Example B01)
# Format: biochemical
# particulars: OGA enzyme inhibition assay; activity range classes defined in μM; read-out: OGA IC50
endpoint_label: IC50

{"compound": "C[C@@H](c1ccc2c(c1)OCO2)N1CCN(c2ncc(Br)cn2)CC1", "IC50": "< 0.05 µM"}

Value lookup for IC50; key = CCCNc1ccnc(N2CCN(C(C)c3ccc4c(c3)OCO4)CC2)n1 (racemic) 0.2 to 1 µM

// next record COc1ccc(-c2csc(N3CCN(C(C)c4ccc5c(c4)OCO5)CC3)n2)cc1 (racemic) 1 to 10 µM

Another compound to check: CC(c1ccc2c(c1)OCO2)N1CCN(c2ncc(C(=O)N(C)C)cn2)CC1 (racemic) < 0.05 µM

And then C[C@@H](c1ccc2c(c1)OCO2)N1CCN(c2ccc(CO)cn2)CC1 , what is it? < 0.05 µM

And then CC(c1ccc2c(c1)OCO2)N1CCN(c2ncc(Cl)cn2)CC1 (racemic) , what is it? 0.05 to 0.2 µM

Next entry: CC(c1ccc2c(c1)OCO2)N1CCN(c2ccccn2)CC1 (racemic) 0.2 to 1 µM

// repeat for CC(=O)N(C)Cc1cnc(N2CCN(C(C)c3ccc4c(c3)OCO4)CC2)s1 (racemic) and report < 0.05 µM

---

# measured_on: His-Tagged hOGA (human O-GlcNAcase) (Homo sapiens (Human))
# assay_comment: Human O-GlcNAcase enzyme inhibition assay (Example B01)
# Type: biochemical
# particulars: OGA enzyme inhibition assay; activity range classes defined in μM; read-out: OGA IC50
Below: a set of entries, each annotated with reported IC50.

Solved cases below.
{"compound": "C[C@@H](c1ccc2c(c1)OCO2)N1CCN(c2ccc(Br)cn2)CC1", "endpoint_label": "IC50", "endpoint_value": "0.05 to 0.2 µM"}
{"compound": "CC(=O)c1cnc(N2CCN([C@@H](C)c3ccc4c(c3)OCO4)CC2)nc1", "endpoint_label": "IC50", "endpoint_value": "< 0.05 µM"}
{"compound": "CC(c1ccc2c(c1)OCO2)N1CCN(c2ncc(CO)s2)CC1 (racemic)", "endpoint_label": "IC50", "endpoint_value": "0.05 to 0.2 µM"}
{"compound": "CNC(=O)c1cnc(N2CCN(C(C)c3ccc4c(c3)OCCO4)CC2)s1 (racemic)", "endpoint_label": "IC50", "endpoint_value": "< 0.05 µM"}
{"compound": "Cc1noc(C2CCN(C(C)c3ccc4c(c3)OCO4)CC2)n1 (racemic)", "endpoint_label": "IC50", "endpoint_value": "0.2 to 1 µM"}
{"compound": "CC(=O)Nc1nnc(N2CCN(C(C)c3ccc(F)c(F)c3)CC2)s1 (racemic)", "endpoint_label": "IC50", "endpoint_value": "1 to 10 µM"}

// map C[C@@H](c1ccc2c(c1)OCO2)N1CCN(c2ncc(C3(O)CCOCC3)cn2)CC1 to recorded IC50 (system: His-Tagged hOGA (human O-GlcNAcase) (Homo sapiens (Human))) < 0.05 µM

Okay, and CC(c1ccc2c(c1)OCO2)N1CCN(c2nnc(NC(=O)c3ccc(Cl)cc3)s2)CC1 (racemic) ? 0.05 to 0.2 µM

Try this compound too: CC(=O)Nc1nnc(N2CCN(C(C)c3ccc4c(c3)OCCO4)CC2)s1 (racemic) < 0.05 µM
